test system: EKVX; test: relative viability (nuclei count vs DMSO), 5 days (fraction); higher = more cells survive; conditions: first compound 0.002 µM
Each entry below carries its reported relative viability.
Please respond with just the number, no unit label.

Known relative viability results, listed for orientation:
compound	relative viability
CC(=O)O[C@@]12CO[C@@H]1C[C@H](O)[C@@]1(C)C(=O)[C@H](O)C3=C(C)[C@@H](OC(=O)[C@H](O)[C@@H](NC(=O)OC(C)(C)C)c4ccccc4)C[C@@](O)([C@@H](OC(=O)c4ccccc4)[C@H]21)C3(C)C [Docetaxel] + CCNC(=O)c1noc(-c2cc(C(C)C)c(O)cc2O)c1-c1ccc(CN2CCOCC2)cc1 [Luminespib] (partner 0.01 µM)	0.45
CC(=O)O[C@@]12CO[C@@H]1C[C@H](O)[C@@]1(C)C(=O)[C@H](O)C3=C(C)[C@@H](OC(=O)[C@H](O)[C@@H](NC(=O)OC(C)(C)C)c4ccccc4)C[C@@](O)([C@@H](OC(=O)c4ccccc4)[C@H]21)C3(C)C [Docetaxel] + COc1cc2c(Oc3ccc(NC(=O)C4(C(=O)Nc5ccc(F)cc5)CC4)cc3F)ccnc2cc1OCCCN1CCOCC1 [Foretinib] (partner 0.25 µM)	0.411
CC(=O)O[C@@]12CO[C@@H]1C[C@H](O)[C@@]1(C)C(=O)[C@H](O)C3=C(C)[C@@H](OC(=O)[C@H](O)[C@@H](NC(=O)OC(C)(C)C)c4ccccc4)C[C@@](O)([C@@H](OC(=O)c4ccccc4)[C@H]21)C3(C)C [Docetaxel] + Cc1nc(Nc2ncc(C(=O)Nc3c(C)cccc3Cl)s2)cc(N2CCN(CCO)CC2)n1 [Dasatinib] (partner 0.075 µM)	0.296

query: Identify the reported relative viability for the following entry. CC(=O)O[C@@]12CO[C@@H]1C[C@H](O)[C@@]1(C)C(=O)[C@H](O)C3=C(C)[C@@H](OC(=O)[C@H](O)[C@@H](NC(=O)OC(C)(C)C)c4ccccc4)C[C@@](O)([C@@H](OC(=O)c4ccccc4)[C@H]21)C3(C)C [Docetaxel] + O=C(CCCCCCC(=O)Nc1ccccc1)NO [Vorinostat] (partner 1 µM)
result: 0.428

query: Identify the reported relative viability for the following entry. CC(=O)O[C@@]12CO[C@@H]1C[C@H](O)[C@@]1(C)C(=O)[C@H](O)C3=C(C)[C@@H](OC(=O)[C@H](O)[C@@H](NC(=O)OC(C)(C)C)c4ccccc4)C[C@@](O)([C@@H](OC(=O)c4ccccc4)[C@H]21)C3(C)C [Docetaxel] + Nc1nc2[nH]cc(CCc3ccc(C(=O)N[C@@H](CCC(=O)O)C(=O)O)cc3)c2c(=O)[nH]1 [Pemetrexed] (partner 0.2 µM)
result: 0.288

query: Identify the reported relative viability for the following entry. CC(=O)O[C@@]12CO[C@@H]1C[C@H](O)[C@@]1(C)C(=O)[C@H](O)C3=C(C)[C@@H](OC(=O)[C@H](O)[C@@H](NC(=O)OC(C)(C)C)c4ccccc4)C[C@@](O)([C@@H](OC(=O)c4ccccc4)[C@H]21)C3(C)C [Docetaxel] + Cc1cc(Nc2cc(N3CCN(C)CC3)nc(Sc3ccc(NC(=O)C4CC4)cc3)n2)n[nH]1 [Tozasertib] (partner 0.1 µM)
result: 0.224

query: Identify the reported relative viability for the following entry. CC(=O)O[C@@]12CO[C@@H]1C[C@H](O)[C@@]1(C)C(=O)[C@H](O)C3=C(C)[C@@H](OC(=O)[C@H](O)[C@@H](NC(=O)OC(C)(C)C)c4ccccc4)C[C@@](O)([C@@H](OC(=O)c4ccccc4)[C@H]21)C3(C)C [Docetaxel] + O=C(c1cc(Cc2n[nH]c(=O)c3ccccc23)ccc1F)N1CCN(C(=O)C2CC2)CC1 [Olaparib] (partner 8 µM)
result: 0.387
